Target: T1, GRIP1_7, Q9Y3R0
T1 sequence (Q9Y3R0 999-1096, limits assumed, looked up): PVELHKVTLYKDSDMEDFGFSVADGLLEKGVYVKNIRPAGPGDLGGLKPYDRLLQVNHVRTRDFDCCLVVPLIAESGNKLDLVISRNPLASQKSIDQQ
Assay: holdup assay
Parameters: key: below the threshold = too weak to quantify, mostly under pKd 3.1 to 4
Conditions: plain residues with an end cap or a label only (N-terminal biotin on a linker: ado-ado)
measuredAttribute: pKd

Before answering, review these 5 worked examples.
- binder: "GIKKITSTAL [RPS6KA3, P51812]"
  pKd: 3.56
- binder: "SLNANEVEWF [RNF130, Q86XS8]"
  pKd: "below the threshold"
- binder: "EPQYQPGENL [SRC, P12931]"
  pKd: "below the threshold"
- binder: "IDESKKEWLI [CNTNAP2, Q9UHC6]"
  pKd: "below the threshold"
- binder: "MQHQRTHTRV [ZSCAN30, Q86W11]"
  pKd: "below the threshold"

Give pKd for each of the items listed below.
1. GTGYDRKDYV [CLDN3, O15551]
2. SVTSERETNI [SLC16A7, O60669]
3. PSHPRLQTHV [KIRREL2, Q6UWL6]
4. RQKEVRESKC [SCN8A, Q9UQD0]
5. TRKRSGEAAV [PFKM, P08237]
6. NTLNRKTTPV [CACNG8, Q8WXS5]
7. QKAPTKEFYA [SDC2, P34741]

1. below the threshold
2. below the threshold
3. below the threshold
4. below the threshold
5. below the threshold
6. 3.49
7. below the threshold

# return pKd for each item in the list
1. ELSATVTTDC [TRIP6, Q15654]
2. REEPDHSTEV [CCRL2, O00421]
3. QRPYRRGSEI [KCNJ18, B7U540]
4. TGLWKHETTV [ADGRA3, Q8IWK6]

1: below the threshold; 2: 3.56; 3: below the threshold; 4: below the threshold
